In this section we review reported half-life at 10 μM values for a set of molecules.
ASSAY_OVERVIEW: Metabolic stability (substrate depletion) in human liver microsome Phase I incubations
CONDITION_DETAILS: human, human liver microsomes, pH 7.4, half-life (t1/2), HLM 1 mg/mL, cathinone 10 μM, NADPH, 37°C, pH 7.4

MOLECULE	UNIT_SYMBOL	half-life at 10 μM
CCCC(C(=O)c1ccc(C)cc1)N(C)C (centres unmarked) [4-MDMP, 4′-methyl-N,N-dimethylpentedrone]	min	46
CCNC(CC)C(=O)c1ccc(C)cc1 (centres unmarked) [4-MNEB, 4′-methyl-N-ethylbufedrone]	min	55
CCC(C(=O)c1ccc(C)cc1)N(C)C (centres unmarked) [4-MDMB, 4′-methyl-N,N-dimethylbufedrone]	min	15
CC(C)NC(C)C(=O)c1cccc(Cl)c1 (centres unmarked) [3-CIC, 3′-chloro-N-isopropylcathinone]	min	24
CNC(C)C(=O)c1cccc(Cl)c1 (centres unmarked) [3-CMC, 3′-chloromethcathinone]	min	54
CC(C)NC(C)C(=O)c1ccc(Cl)cc1 (centres unmarked) [4-CIC, 4′-chloro-N-isopropylcathinone]	min	36
CNC(C)C(=O)c1ccc(Cl)cc1 (centres unmarked) [4-CMC, 4′-chloromethcathinone]	min	78
CCCC(NCC)C(=O)c1ccc(C)cc1 (centres unmarked) [4-MEAP, 4′-methyl-N-ethylnorpentedrone]	min	24

meta.source: paper PMC10080127
